Target: T1, cMet-Fc fusion protein (extracellular domain of the cMet receptor expressed as an Fc-fusion protein) (human, UniProt P08581 25-932)
T1 construct: extracellular domain; also called soluble cMet-Fc-fusion protein; soluble cMet receptor; not shown: Fc part
T1 sequence (P08581 25-932): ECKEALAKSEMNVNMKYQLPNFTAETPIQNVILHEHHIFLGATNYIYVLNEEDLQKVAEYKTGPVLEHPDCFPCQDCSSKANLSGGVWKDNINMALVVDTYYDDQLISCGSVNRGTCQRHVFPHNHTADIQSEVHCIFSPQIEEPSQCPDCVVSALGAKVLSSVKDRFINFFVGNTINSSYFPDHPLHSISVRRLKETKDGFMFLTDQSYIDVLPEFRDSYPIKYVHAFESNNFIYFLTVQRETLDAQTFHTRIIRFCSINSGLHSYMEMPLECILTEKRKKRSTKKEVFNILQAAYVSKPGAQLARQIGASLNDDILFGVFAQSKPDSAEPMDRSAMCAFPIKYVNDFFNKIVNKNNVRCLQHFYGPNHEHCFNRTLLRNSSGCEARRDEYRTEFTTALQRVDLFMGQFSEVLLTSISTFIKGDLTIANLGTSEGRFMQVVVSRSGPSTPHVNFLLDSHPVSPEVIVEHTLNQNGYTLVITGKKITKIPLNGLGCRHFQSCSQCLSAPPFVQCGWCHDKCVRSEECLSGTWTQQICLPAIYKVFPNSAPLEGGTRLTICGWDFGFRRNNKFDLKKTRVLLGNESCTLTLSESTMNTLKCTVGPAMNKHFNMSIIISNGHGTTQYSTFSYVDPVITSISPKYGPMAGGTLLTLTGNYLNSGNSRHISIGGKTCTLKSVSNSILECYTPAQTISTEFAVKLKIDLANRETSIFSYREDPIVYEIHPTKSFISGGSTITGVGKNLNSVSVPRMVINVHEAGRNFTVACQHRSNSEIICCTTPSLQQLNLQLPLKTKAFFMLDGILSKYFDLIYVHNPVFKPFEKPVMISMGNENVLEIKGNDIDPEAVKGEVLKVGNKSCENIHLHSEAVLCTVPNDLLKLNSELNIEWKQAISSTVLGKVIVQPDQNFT
Assay: phage ELISA, cMet-Fc vs TRAIL-Fc
Experimental: Protein phage ELISAs using peptide-displaying phage isolates from the various selection campaigns were performed to determine specificity of the peptides for cMet versus an unrelated Fc-fusion protein (TRAIL-Fe). […] The plates were incubated for 2 hours at room temperature and washed with PBST. cMet-binding peptide-displaying phage were detected using an HRP-conjugated anti-M13 antibody.
Below, each entry is listed with its recorded Protein ELISA (fold over background).
result.type: Protein ELISA (fold over background) (fold)

- binder: "AGGNWCSFYEELCEWLGT [445-E04 peptide-displaying phage (SEQ ID NO: 043)]"
  result.type: "Protein ELISA (fold over background)"
  reading: 4.2
- binder: "GSFWNCTTDLGAMSDCGFFAP [445-E07 peptide-displaying phage (SEQ ID NO: 383)]"
  result.type: "Protein ELISA (fold over background)"
  reading: 3.1
- binder: "AGTIRCNLAMMVCMFEGT [444-B08 peptide-displaying phage (SEQ ID NO: 028)]"
  result.type: "Protein ELISA (fold over background)"
  reading: 3.6
- binder: "AGWTWCDLSMMSCIFHGT [573-E07 peptide-displaying phage (SEQ ID NO: 025)]"
  result.type: "Protein ELISA (fold over background)"
  reading: 3.2
- binder: "GDLLGCGYQEKGGEYKCRFNDP [334-F05 peptide-displaying phage (SEQ ID NO: 395)]"
  result.type: "Protein ELISA (fold over background)"
  reading: 13.5
- binder: "AQWGAVDNDWYDWEMEQIWMFE [527-E08 peptide-displaying phage (SEQ ID NO: 491)]"
  result.type: "Protein ELISA (fold over background)"
  reading: 3.2
- binder: "AQMWHRVHDPGYTFEVTWLWDN [166-H04 peptide-displaying phage (SEQ ID NO: 488)]"
  result.type: "Protein ELISA (fold over background)"
  reading: 3

Data provenance: patent US20120039802A1
